Values from patent US20240116985A1

test: CHI Log D procedure; format: physicochemical; settings: pH 7.4, CHI Log D
QUANTITY KIND: chromatographic logD
Field format: numeric only.

# annotated cases, reported chromatographic logD shown
• CC[C@H](C)[C@@H]1NC(=O)[C@H](CC(=O)O)NC(=O)[C@]2(CC=CCCCC3(CCCC=CCCCCCC[C@@](C)(C(=O)N[C@@H](Cc4ccccc4)C(=O)N[C@@H](Cc4csc5ccccc45)C(=O)N[C@@H](CCC(N)=O)C(N)=O)NC(=O)[C@H](CCC(N)=O)NC(=O)[C@H](Cc4ccccc4)NC(=O)[C@H](C)NC(=O)[C@H](C)NC(=O)[C@H](CCC(=O)O)NC(=O)C[C@H](CC(=O)O)NC3=O)NC1=O)CCCN2C(C)=O (some centres unmarked) = 2.13
• CC(=O)N1CCC[C@]12CC=CCCCC1(CCCC=CCCCOC(=O)N3CC[C@@](C(=O)N[C@@H](Cc4ccsc4)C(=O)N[C@@H](Cc4csc5ccccc45)C(=O)N[C@@H](CCC(N)=O)C(=O)N[C@@H](CCCCNC(=O)c4cccc5ccccc45)C(N)=O)(C3)NC(=O)[C@H](CC(N)=O)NC(=O)[C@H](Cc3ccccc3)NC(=O)[C@H](C)NC(=O)[C@H](C)NC(=O)[C@H](CC(=O)O)NC(=O)[C@H](CC(=O)O)NC1=O)NC(=O)[C@H](CC(C)(C)C)NC(=O)[C@H](CC(=O)O)NC2=O (some centres unmarked) = 2.33
• CC(=O)N1CCC[C@]12CC=CCCCC1(CCCC=CCCCOC(=O)N3CC[C@@](C(=O)N[C@@H](Cc4ccsc4)C(=O)N[C@@H](Cc4csc5ccccc45)C(=O)N[C@@H](Cc4c[nH]cn4)C(N)=O)(C3)NC(=O)[C@H](CC(N)=O)NC(=O)[C@H](Cc3ccccc3)NC(=O)[C@H](C)NC(=O)[C@H](C)NC(=O)[C@H](Cc3ccc(O)cc3)NC(=O)[C@H](CC(=O)O)NC1=O)NC(=O)[C@H](CC(C)(C)C)NC(=O)[C@H](CC(=O)O)NC2=O (some centres unmarked) = 2.49
• CC(=O)N1CCC[C@]12CC=CCCCC1(CCCC=CCCCOC(=O)N3CC[C@@](C(=O)N[C@@H](Cc4ccccc4Cl)C(=O)N[C@@H](Cc4csc5ccccc45)C(=O)N[C@@H](CCC(N)=O)C(N)=O)(C3)NC(=O)[C@H]([C@@H](C)O)NC(=O)[C@H](Cc3ccccc3)NC(=O)[C@H](C)NC(=O)[C@H](C)NC(=O)[C@H](CC(N)=O)NC(=O)[C@H](CC(=O)O)NC1=O)NC(=O)[C@H](CC(C)(C)C)NC(=O)[C@H](CC(=O)O)NC2=O (some centres unmarked) = 2.38

// switching to the query compound
Q) GET /values?readout=chromatographic logD&item= COc1cccc(C[C@@H]2NC(=O)[C@H](C)NC(=O)[C@H](C)NC(=O)[C@H](CC(=O)O)NC(=O)[C@H](CC(=O)O)NC(=O)C3(CCCC=CCCCOC(=O)N4CC[C@@](C(=O)N[C@@H](Cc5ccccc5Cl)C(=O)N[C@@H](Cc5csc6ccccc56)C(=O)N[C@@H](CCC(N)=O)C(N)=O)(C4)NC(=O)[C@H](CO)NC2=O)CCCC=CC[C@]2(CCCN2C(C)=O)C(=O)N[C@@H](CC(=O)O)C(=O)N[C@@H](CC2CCCCC2)C(=O)N3)c1 (some centres unmarked)
A) 2.34

###

Below is a list of entries, each paired with its recorded IC50 value.
target: full-length beta-Catenin (Uniprot ID P35222) (Homo sapiens, UniProt P35222); construct: 10 nM full-length beta-Catenin (Uniprot ID P35222); assay: Fluorescence polarization IC50 (beta-catenin / 5FAM-TCF4 10-53 competition); assay type: binding; settings: fluorescence polarization; read-out: beta-Catenin FP IC50
Sequence (P35222 whole entry): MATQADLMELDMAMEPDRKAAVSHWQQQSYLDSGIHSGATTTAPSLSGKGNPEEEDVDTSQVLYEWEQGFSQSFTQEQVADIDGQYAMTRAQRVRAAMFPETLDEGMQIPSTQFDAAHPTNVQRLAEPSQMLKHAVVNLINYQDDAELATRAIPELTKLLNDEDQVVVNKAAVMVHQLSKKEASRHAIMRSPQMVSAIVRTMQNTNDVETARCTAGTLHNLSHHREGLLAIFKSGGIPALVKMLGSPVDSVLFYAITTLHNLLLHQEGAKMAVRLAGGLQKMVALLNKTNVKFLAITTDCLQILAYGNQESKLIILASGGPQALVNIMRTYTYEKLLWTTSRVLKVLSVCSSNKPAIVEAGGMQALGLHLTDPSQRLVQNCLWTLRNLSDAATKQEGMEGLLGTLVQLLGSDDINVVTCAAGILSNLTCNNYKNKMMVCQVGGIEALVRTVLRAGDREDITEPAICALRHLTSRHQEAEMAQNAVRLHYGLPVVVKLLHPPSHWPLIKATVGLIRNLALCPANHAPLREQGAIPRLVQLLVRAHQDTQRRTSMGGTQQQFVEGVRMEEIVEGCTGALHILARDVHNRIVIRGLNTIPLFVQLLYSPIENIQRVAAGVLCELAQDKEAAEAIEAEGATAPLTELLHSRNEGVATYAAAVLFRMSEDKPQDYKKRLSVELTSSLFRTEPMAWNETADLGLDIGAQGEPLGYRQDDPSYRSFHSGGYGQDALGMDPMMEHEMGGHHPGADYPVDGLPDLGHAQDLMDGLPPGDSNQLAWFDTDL
Write the figure, then the unit, nothing else.

Here is how some compounds turned out for IC50.
* CC(=O)N1CCC[C@]12CC=CCCCC1(CCCC=CCCCOC(=O)N3CC[C@@](C(=O)N[C@@H](Cc4ccccc4)C(=O)N[C@@H](Cc4csc5ccccc45)C(=O)N[C@@H](CCC(N)=O)C(N)=O)(C3)NC(=O)[C@H](CCCCNC(C)C)NC(=O)[C@H](Cc3ccccc3)NC(=O)[C@H](C)NC(=O)[C@H](CCCCNC(C)C)NC(=O)[C@H](CCC(N)=O)NC(=O)[C@H](CC(=O)O)NC1=O)NC(=O)[C@H](CC(C)(C)C)NC(=O)[C@H](CC(N)=O)NC2=O (stereo partly drawn) | 903 nM
* CC(=O)N1CCC[C@]12CC=CCCCC1(CCCC=CCCCOC(=O)N3CC[C@@](C(=O)N[C@@H](Cc4ccccc4Cl)C(=O)N[C@@H](Cc4csc5ccccc45)C(=O)N[C@@H](CCC(N)=O)C(N)=O)(C3)NC(=O)[C@H](CC(C)C)NC(=O)[C@H](Cc3ccccc3)NC(=O)[C@H](C)NC(=O)[C@H](C)NC(=O)[C@H]([C@@H](C)O)NC(=O)[C@H](CC(=O)O)NC1=O)NC(=O)[C@H](CC(C)(C)C)NC(=O)[C@H](CC(=O)O)NC2=O (stereo partly drawn) | 159 nM

// moving on: another record for IC50
Q) Can you look up the measured IC50 of CC(=O)N1CCC[C@]12CC=CCCCC1(CCCC=CCCCOC(=O)N3CC[C@@](C(=O)N[C@@H](Cc4ccsc4)C(=O)N[C@@H](Cc4csc5ccccc45)C(=O)N[C@@H](CCC(N)=O)C(N)=O)(C3)NC(=O)[C@H](CCO)NC(=O)[C@H](Cc3cccc(C(=O)O)c3)NC(=O)[C@H](C)NC(=O)[C@H](C)NC(=O)[C@H](Cc3c[nH]cn3)NC(=O)[C@H](CC(=O)O)NC1=O)NC(=O)[C@H](CC(C)(C)C)NC(=O)[C@H](CC(=O)O)NC2=O (stereo partly drawn) [I-2121] for me?
A) 12 nM

###

Recorded measurements of CHI Log D, one per entry
test: CHI Log D procedure; assay type: physicochemical; settings: pH 7.4
Answer field: number only, no words.

- CC[C@H](C)[C@@H]1NC(=O)[C@H](CC(=O)O)NC(=O)[C@]2(CC=CCCCC3(CCCC=CCCCCCC[C@@](C)(C(=O)N[C@@H](Cc4ccccc4)C(=O)N[C@@H](Cc4csc5ccccc45)C(=O)N[C@@H](CCC(N)=O)C(N)=O)NC(=O)[C@H](CCC(N)=O)NC(=O)[C@H](Cc4ccccc4)NC(=O)[C@H](C)NC(=O)[C@H](CCCCNC(=O)CN=[N+]=[N-])NC(=O)[C@H](CCC(=O)O)NC(=O)[C@H](CC(=O)O)NC3=O)NC1=O)CCCN2C(C)=O (some centres unmarked) [I-591]: 2.348

In the following, a different compound is considered.
Q) Reported CHI Log D for CC(=O)N1CCC[C@]12CC=CCCCC1(CCCC=CCCCOC(=O)N3CC[C@@](C(=O)N[C@@H](Cc4ccsc4)C(=O)N[C@@H](Cc4csc5ccccc45)C(=O)N[C@@H](C(N)=O)[C@H](C)O)(C3)NC(=O)[C@H](CC(N)=O)NC(=O)[C@H](Cc3ccccc3)NC(=O)[C@H](C)NC(=O)[C@H](C)NC(=O)[C@H](CN(CC(=O)O)CC(F)(F)F)NC(=O)[C@H](CC(=O)O)NC1=O)NC(=O)[C@H](CC(C)(C)C)NC(=O)[C@H](CC(=O)O)NC2=O (some centres unmarked) [I-949] : what is it?
A) 2.086

###

target: beta-catenin/TCF4 engagement (Homo sapiens); construct: expressed in transfected cells; host or cells: HEK293; test: Nano-BRET target engagement assay (B-cat-Halo & TCF4-Luc in HEK293 cells); assay type: cell-based; details: absolute IC50; read-out: NanoBRET Abs IC50
Recorded measurements of IC50, one per entry

* CC(=O)N1CCC[C@]12CC=CCCCC1(CCCC=CCCCCCC[C@@](C)(C(=O)N[C@@H](Cc3ccccc3)C(=O)N[C@@H](Cc3csc4ccccc34)C(=O)N[C@@H](CCC(N)=O)C(N)=O)NC(=O)[C@H](CCO)NC(=O)[C@H](Cc3ccccc3)NC(=O)[C@H](C)NC(=O)[C@H](C)NC(=O)[C@H](CCC(=O)O)NC(=O)[C@H](CC(=O)O)NC1=O)NC(=O)[C@H](CCCCN)NC(=O)[C@H](CC(=O)O)NC2=O (some centres unmarked) | > 20 µM

Now examine the next entry.
Q) # input compound: CC(=O)N1CCC[C@]12CC=CCCCC1(CCCC=CCCCOC(=O)N3CC[C@@](C(=O)N[C@@H](Cc4ccsc4)C(=O)N[C@@H](Cc4csc5ccccc45)C(=O)N[C@@H](CCC(N)=O)C(N)=O)(C3)NC(=O)[C@H](CC(N)=O)NC(=O)[C@H](Cc3ccccc3)NC(=O)[C@H](C)NC(=O)C3(CC3)NC(=O)[C@H]([C@@H](C)O)NC(=O)[C@H](CC(N)=O)NC1=O)NC(=O)[C@H](CC(C)(C)C)NC(=O)[C@H](CC(=O)O)NC2=O (some centres unmarked) ; wanted: its IC50
A) > 20 µM
